# experimental system: T1, Cynomolgus monkey CD98 ECD with C-terminal His-tag (cynomolgus monkey, UniProt P08195 105-529 (human entry))
# T1 construct: also called cyCD98 ECD; recombinant cynomolgus monkey CD98 extracellular domain
# T1 chain: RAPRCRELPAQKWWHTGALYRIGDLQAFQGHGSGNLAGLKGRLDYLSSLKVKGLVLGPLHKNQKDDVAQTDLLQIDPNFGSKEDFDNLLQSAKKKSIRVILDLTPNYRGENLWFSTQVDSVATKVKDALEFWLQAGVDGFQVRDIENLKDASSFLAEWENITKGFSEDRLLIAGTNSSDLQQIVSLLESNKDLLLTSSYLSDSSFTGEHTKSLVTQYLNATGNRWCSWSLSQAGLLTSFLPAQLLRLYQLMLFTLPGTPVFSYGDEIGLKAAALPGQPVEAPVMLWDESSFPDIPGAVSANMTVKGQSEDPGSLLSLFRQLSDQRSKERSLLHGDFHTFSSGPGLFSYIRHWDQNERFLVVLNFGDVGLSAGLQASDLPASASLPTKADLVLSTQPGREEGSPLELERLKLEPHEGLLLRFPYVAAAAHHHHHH
# procedure summary: SPR Biacore, anti-Fc capture of mAb, CD98 ECD analyte
experimental readout: koff (s⁻¹)
Your answer is read as s⁻¹, so omit the unit and give the number.

Let me know recorded koff for Anti-CD98 murine hybridoma antibody Ab5 (antibody, V domains shown) VH: EVKLVESGGGLVQPGGSLRLSCATSGFTFTDYYMTWVRQPPGKALEWLGFIRNKANGYTTEYSASVKGRFTISRDNSLSILYLQMNTLRAEDSATYYCARASYVNSEGWFAYWGQGTLVTVSA VL: DIVMSQSPSSLAVSVGEKVTMSCKSSQSLLYSSNQKNYLAWYQQKLGQSPKLLIYWASTRESGVPDRFTGSGSGTDFTLTISSVKAEDLAVYYCQHYYSYPRTFGGGTKLEIK , thanks.
0.00022

Let me know recorded koff for Anti-CD98 rat hybridoma antibody Ab9 (antibody, V domains shown) VH: QVQLKESGPGLVQPSQTLSLTCAVSGFSLSNYGVIWVRQPPGKGLEWMAVIWTNGNTNYNSTLKSRLSISRDTSKSQVYLKMNSLQTEDTATYYCARHYYDGTYYYGYFDYWGQGVMVTVSS VL: DIVMTQTPSSQAVSAGEKVTMSCKSSQSLLYTENKKNYLAWYQQKPGQSPKLLIYWASTRESGVPDRFMGSGSGTDFTLTISSVQAEDLAVYYCQQYYYFPYMFGAGTKLELK , thanks.
0.00051

Let me know recorded koff for Anti-CD98 murine hybridoma antibody Ab3 (antibody, V domains shown) VH: EVKLVESGGGLVQPGNSLRLSCATSGFTFIDYYMSWVRQSPGKALEWLGFIRNKANGYTTEYSASVKGRFTISRDNSQSILYLQMDTLRAEDSATYYCTRDRPAWFVYWGQGTLVTVSA VL: DIVMSQSPSSLAVSVGEKVTMSCKSSQSLLYSSNQKNYLAWYQQKPGQSPKLLIYWASTRESGVPDRFTGSGSGTDFTLTFSSVRAEDLAVYYCQQYYSYPYTFGGGTKLEIK , thanks.
0.0012
